Value source: ChEMBL document CHEMBL1122759

- Test system: Felis catus
- MEASUREMENT DESCRIPTION: Compound tested in vitro for sympathetic neuronal activity in cat atria […]
- Format: functional
- CONDITION NOTES: Sympathetic neuron, read-out: ED50 (the source's name)
QUANTITY: EC50

CCCN(CCC)CCc1cc(O)cc2[nH]ccc12: 27 nM
